- EXPERIMENTAL TARGET: Integrin alpha-IIb/beta-3 (Homo sapiens, UniProt P05106+P08514)
- Sequence (P05106 27-788 limits assumed): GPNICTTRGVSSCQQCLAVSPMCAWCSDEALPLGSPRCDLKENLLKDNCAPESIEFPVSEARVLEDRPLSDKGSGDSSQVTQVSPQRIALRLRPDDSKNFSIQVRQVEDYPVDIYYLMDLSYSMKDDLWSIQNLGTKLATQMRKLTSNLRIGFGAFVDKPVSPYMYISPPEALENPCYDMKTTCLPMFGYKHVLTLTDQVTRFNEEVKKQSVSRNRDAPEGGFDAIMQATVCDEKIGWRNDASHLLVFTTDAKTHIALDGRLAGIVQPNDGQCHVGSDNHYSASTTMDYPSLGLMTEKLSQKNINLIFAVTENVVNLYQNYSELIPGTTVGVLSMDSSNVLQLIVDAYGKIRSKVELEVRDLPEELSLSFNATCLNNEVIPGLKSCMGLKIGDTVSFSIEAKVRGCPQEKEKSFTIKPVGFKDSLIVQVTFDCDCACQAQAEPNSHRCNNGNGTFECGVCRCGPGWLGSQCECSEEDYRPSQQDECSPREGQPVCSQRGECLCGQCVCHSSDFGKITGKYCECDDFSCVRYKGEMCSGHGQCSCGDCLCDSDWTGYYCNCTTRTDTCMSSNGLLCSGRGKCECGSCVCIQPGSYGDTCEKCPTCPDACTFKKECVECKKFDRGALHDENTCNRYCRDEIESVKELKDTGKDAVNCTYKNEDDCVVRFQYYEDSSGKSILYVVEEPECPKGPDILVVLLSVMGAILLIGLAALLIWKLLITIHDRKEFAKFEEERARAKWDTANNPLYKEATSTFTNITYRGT
- Sequence (P08514 32-887 limits assumed): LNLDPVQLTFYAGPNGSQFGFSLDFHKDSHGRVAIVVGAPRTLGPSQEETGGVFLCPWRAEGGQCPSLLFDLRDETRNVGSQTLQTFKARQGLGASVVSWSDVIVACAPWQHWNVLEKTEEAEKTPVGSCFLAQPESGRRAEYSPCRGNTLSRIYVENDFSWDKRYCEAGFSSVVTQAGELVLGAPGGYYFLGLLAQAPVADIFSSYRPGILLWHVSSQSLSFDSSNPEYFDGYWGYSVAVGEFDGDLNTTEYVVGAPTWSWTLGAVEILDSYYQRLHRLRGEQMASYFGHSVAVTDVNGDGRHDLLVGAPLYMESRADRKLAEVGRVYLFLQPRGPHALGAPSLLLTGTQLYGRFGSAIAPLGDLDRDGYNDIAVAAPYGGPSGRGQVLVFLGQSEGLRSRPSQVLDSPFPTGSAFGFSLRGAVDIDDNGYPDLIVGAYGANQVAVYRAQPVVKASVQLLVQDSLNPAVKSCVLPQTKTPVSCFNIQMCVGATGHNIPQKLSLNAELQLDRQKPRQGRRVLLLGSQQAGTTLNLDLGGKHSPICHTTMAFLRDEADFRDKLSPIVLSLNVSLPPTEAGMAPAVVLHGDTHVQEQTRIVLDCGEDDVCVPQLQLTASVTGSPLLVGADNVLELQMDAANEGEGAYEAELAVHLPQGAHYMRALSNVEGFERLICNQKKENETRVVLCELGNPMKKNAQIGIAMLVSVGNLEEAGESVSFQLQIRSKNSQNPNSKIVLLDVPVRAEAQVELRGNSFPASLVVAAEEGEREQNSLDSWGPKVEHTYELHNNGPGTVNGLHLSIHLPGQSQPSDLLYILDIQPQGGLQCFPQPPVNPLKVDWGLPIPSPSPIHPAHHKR
- Sequence (P08514 891-1039 limits assumed): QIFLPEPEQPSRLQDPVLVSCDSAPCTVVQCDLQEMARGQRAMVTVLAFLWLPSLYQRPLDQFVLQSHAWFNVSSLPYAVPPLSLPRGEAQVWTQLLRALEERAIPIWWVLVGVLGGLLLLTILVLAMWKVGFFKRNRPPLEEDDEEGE
- ASSAY NOTES: Binding affinity to resting form of alpha IIb/beta3 integrin by flow cytometry using fluorescein ligand L-726,745 displacement from human platelets.
TEST READOUT: Kd (nM)

As a guide, the following entries are already answered.
C#CC(CC(=O)O)NC(=O)CN(C(=O)c1cccc(C2CCNCC2)c1)C1CC1 (stereo unspecified)	120
O=C(NC[C@H](NS(=O)(=O)c1ccccc1)C(=O)O)c1ccc2c(c1)C(=O)N(CCC1CCNCC1)C2	3.1
O=C(O)C[C@@H](CO)NC(=O)c1ccc2c(c1)C(=O)N(CCC1CCNCC1)C2	47
O=C(O)C[C@H](NC(=O)CN1CCc2ccc(N3CCNCC3)cc2C1=O)c1cccnc1	3.4
C#C[C@H](CC(=O)O)NC(=O)CN1CCc2ccc(N3CCNCC3)cc2C1=O	50

[a] CC(CC(=O)O)NC(=O)c1ccc2c(c1)C(=O)N(CCC1CCNCC1)C2 (stereo unspecified)
[b] C#CC(CCCN1CCC[C@@H](CCC2CCNCC2)C1=O)CC(=O)O (stereo partly specified)
[c] C#C[C@H](CC(=O)O)NC(=O)C[C@H]1CCCN(CCC2CCNCC2)C1=O
[d] O=C(O)C[C@H](NC(=O)CN1CCC[C@@H](CCC2CCNCC2)C1=O)c1cccnc1
[e] O=C(NC[C@H](NS(=O)(=O)c1ccccc1)C(=O)O)c1cc2cc(OCCC3CCNCC3)ccc2[nH]1
Order the records so the highest Kd appears first and the lowest last. List each label, following the requested order.
b, d, a, c, e
(b: 3100 nM, d: 84 nM, a: 49 nM, c: 6.1 nM, e: 1.3 nM)

Data provenance: ChEMBL document CHEMBL1133044
